Target: Neu5Ac9Ac(a2-6)Gal(b1-4)GlcNAc
Assay: glycan array binding signal (z-score within array); higher = stronger binding
Conditions: glycan notation: IUPAC condensed, linker removed
The sample as a whole holds a higher share of the strongest signals than the screen did.
MEASURE_NAME: glycan array binding signal (z-score)

ConA (Canavalia ensiformis), P02866 (protein) MAISKKSSLFLPIFTFITMFLMVVNKVSSSTHETNALHFMFNQFSKDQKDLILQGDATTGTDGNLELTRVSSNGSPQGSSVGRALFYAPVHIWESSAVVASFEATFTFLIKSPDSHPADGIAFFISNIDSSIPSGSTGRLLGLFPDANVIRNSTTIDFNAAYNADTIVAVELDTYPNTDIGDPSYPHIGIDIKSVRSKKTAKWNMQNGKVGTAHIIYNSVDKRLSAVVSYPNADSATVSYDVDLDNVLPEWVRVGLSASTGLYKETNTILSWSFTSKLKSNEIPDIATVV; -0.243
LecB PA7 (Pseudomonas aeruginosa) (protein) MATQGVFTLPANTRFGVTAFANSSATQTVKVLVNNETAATFTGQSTNNAVIGSQVLNSGGGGKVQIQVSVNGRSSDLVSAQVILANELNVALVGSEDSTDNDYNDAVVVINWPLG; -0.502

Kindly consider the entry below.
Inquiry: Value lookup for glycan array binding signal (z-score); key = SAG3 (Toxoplasma gondii), Q9BJ39 (protein) MQLWRRRAAGPASLGRQSLPLGCFFAAFGLCVLSAILGTGERGLFVAAGNSRRKITYFGTLTQKAPNWYRCSSTRAKEEVVGHVTLNKEHPDMTIECVDDGLGGEFLPLEGARSSYPRVCHIDAKDQDDCERNRGFLTDYIPGAKQYWYKIEKVEQNGEQSVLYKFTVPWILLPPAKQRYKVGCRYPNHEYCFVEVTVEPTPPMVEGKRVTCGYSESGPVNLEVDLSKNANFIEIRCGEQHHPQPSTYTLQYCSGDSVDPQKCSPQSLTNIFYDYSSSWWKGKLNGPDGATLTIPPGGFPEEDKSFLVGCSLTVDGPPFCNVKVRVAGNPRKWERGGGGHPGSGGLQPGTDGETQAGTGSSAGASSRMASVALAFLLGLLVHVAA
Reply text: 0.292

From: the supplement of paper PMC8728848
